Assay: Antiproliferative activity against mouse 3T3 cells assessed as cell viability at 80 uM incubated for 24 hrs by MTT assay relative to control
Format: toxicity, cell-based
Conditions: NIH3T3 cells, read-out: Activity
I'd appreciate it if you could supply viability at 24 h, 80 µM values for the items below.
Please provide the amount together with its unit, number first.

Q: Param item = OC[C@H]1O[C@H](Oc2ccc(COC(=S)Nc3ccc(C(F)(F)F)cc3)cc2F)[C@@H](O)[C@@H](O)[C@@H]1O ; retrieve measured viability at 24 h, 80 µM.
Result: 83.9%

Q: Also OC[C@H]1O[C@@H](Oc2ccc(COC(=S)Nc3ccc(C(F)(F)F)cc3)cc2Br)[C@H](O)[C@@H](O)[C@@H]1O , if possible.
Result: 92.7%

Q: Proceed to Cc1ccc(NC(=S)OCc2ccc(O[C@@H]3O[C@H](CO)[C@H](O)[C@H](O)[C@H]3O)cc2)cc1
Result: 103%

Q: Further, for OC[C@H]1O[C@H](Oc2ccc(COC(=S)Nc3ccc(C(F)(F)F)cc3)cc2Br)[C@@H](O)[C@@H](O)[C@@H]1O ?
Result: 62.3%
